- assay info: yeast display, Sf9 membrane polyspecificity reagent, FACS + sequencing; frameworks hold sequencing errors

- biosequence: "QVQLVDSGGGLVQAGGSLRLSCAASGFIFQANAMGWYRQAPGKERELVAAIDDGDSTYADSVKGRFTISRDNAKNTVYLQMNSLKPEDTAVYYCATRRNRSYDYWGQGTLVTVSS"
  polyreactivity (PSR sort gate): "low polyreactivity"
- biosequence: "QVQHVESGGGLVQAAGSLRLSCAASGTIFYWYTMGWYRQARGKERELVATITGSGSSTTYADSVKGRFTISRDNAKNSVYLQMNSLKPEDTAVYYCAKVYYIGIRGEYDYWGQGTQVTVSA"
  polyreactivity (PSR sort gate): "low polyreactivity"

---

- assay info: yeast display, Sf9 membrane polyspecificity reagent, FACS + sequencing; frameworks hold sequencing errors

- biosequence: "QVQLVESGGGLVQAGGSLRLSCAASGSIFAQYTMGWYRQAPGKERELVAVISFRGGSTYYADSVKGRFTISRDNAKNTVYLQMNSLKPEDTAVYYCATVGTYPGYGEFDYWGQGTQVTVSS"
  polyreactivity (PSR sort gate): "low polyreactivity"
- biosequence: "QDQLVESGVGLVQEGGSLRLSCAASGSILKRYVMGWYRQAPGKERELVAAISSGSRTYYADSVKGRFTISRDNAKNTVYLQMNSLKPEDTAVYYCAADLTYKYHYDYWGQGTQVTVSS"
  polyreactivity (PSR sort gate): "high polyreactivity"
- biosequence: "QVQLVESCGGLVQEGGSLRLSCAASGFTFLRYAMGWYRQAPGKERELVAAISIPGGNTYYADSVKGRFTISRDNAKNTVYLQMNSLKPEDTAVYYCAARFGGGAARHGYWGQGTQVTVSS"
  polyreactivity (PSR sort gate): "high polyreactivity"
- biosequence: "QVQLVESGGGLVQAGGSIRLSCAASGRIFYAYTMGWYRQAPVKERELVAAIRRRGTTYYADSVKGRFTISRDNAKNTVYLQMNSLKPDDTAVYYCAKDALGYRTSSALLGDYWGQGTQVTVSS"
  polyreactivity (PSR sort gate): "high polyreactivity"
- biosequence: "QVQLVESGGGLVQAGGSRRLSCAASGSIFVKYAMGWYRQAPGKERELVAAKSQSGVRTYYADSVKGRFTISRDNAKNTVYLQMNSLTPEDTAVYYCAAYSGYYYWGQGTQVTVSS"
  polyreactivity (PSR sort gate): "high polyreactivity"
- biosequence: "QVQLVESGGGLVQAGGSLRLSCAASGITFGQYAMGWYRQAPGKERELVAVITSGGDTYYADSVKGRFTISRDNAKNTVYLQINSLKPEDTAVYYCNADDDLTSIYRYDYWGQGTQVTVSS"
  polyreactivity (PSR sort gate): "low polyreactivity"
- biosequence: "QVQLVESGGGLVQAGGSLRISCAASGSTFSGNSMGRYRPAPGKERELFAAINSVRTYYADSVKGRFTISRDNAKNTVYLQMNSLIPEDTAVFSCAARQGYSSRFPAKGYYWGQGTQVTVSS"
  polyreactivity (PSR sort gate): "high polyreactivity"
- biosequence: "QVQLVESGGGLVQAGGSLRLSCAASGSTFYWYSMGWYRQAPGKERELVAAITSTGGSTYADSVKGRFTISRDNAKNTVYLQMNSLKPEDTAVYYCNVDTSSPSRRDYDYWGQGTQVTVSS"
  polyreactivity (PSR sort gate): "low polyreactivity"
- biosequence: "QVQLVESGGGLVQAGGSLRLSCAASGRIVGFYGMGWYRQAPGKERELVARITVGGGSTYYADSVKGRFTISRDNAKNTGYLQMNSLKPEDTAVYYCNAVYARYGSQGYEYWGQGTQVTVSS"
  polyreactivity (PSR sort gate): "high polyreactivity"
- biosequence: "QVQLVESGGGLVQAGGSLRLSCAASGRIFWAYTMGWYRQAPGKERELVAAITGSGGSTYYADSVKGRFTISRDNAKNTVYLQMNSLKPEDTAVYYCAADIGYIRLPRGREYDYWGQGTEVTVSS"
  polyreactivity (PSR sort gate): "high polyreactivity"
- biosequence: "QVQLVESGGGLVQAGGSLRLSCAASGSTFTYNDMGWYRQAPGKERELVARITFSSGRTYYADSVKGRFTISRDNAKNTVYLQMNSLKPEDTAVYYCARQWYWRPGYYIGQGYEYWGQGTQVTVSS"
  polyreactivity (PSR sort gate): "low polyreactivity"
- biosequence: "QVQLVESGGGLVQAGGSLRLSCAASGFTFNDNAMGWYRQAPGKERELVAAITYGGSTYYADSVKGRFTISRDNAKNTVYLQMNSLKPEDTAVYYCARDLSAGPGRDYWGQGTQVTVSS"
  polyreactivity (PSR sort gate): "low polyreactivity"
- biosequence: "QVQLVESGGGLVQAGGSLRIICAASGRTFSYYAMGWYRQAPGKERELVAVITSSGGSTSYADSVKGRFTISRDNAKNTVYLQMKSLKPEDTAVYYCAADPLAVSWAYYLFGVDYWGHGTQVTVSS"
  polyreactivity (PSR sort gate): "high polyreactivity"
- biosequence: "QVQLVESGGGLVQAGGSLRLSCAASGSIFCYYAMGWYRQAPGKERELVATITSGGSTSYADSVKGRFTISRDNAKNTVYLQMNSLKPEDTAVYYCAAARLFTTYDWGQGTQVTVSS"
  polyreactivity (PSR sort gate): "low polyreactivity"
- biosequence: "QVQLQESGGGLVQAGGDLRLSCAASGNIFRDYIMGWYRQAPRKEREFVAGIDRGANTNYADSVKGRFTISRDNAKNTVYLLLNSLKPEDTAVYYCAVHTAIVPDFIYWGQGTQVTVSS"
  polyreactivity (PSR sort gate): "low polyreactivity"
- biosequence: "QVQLVESGGGLVQAGGSLRLSCAASGFIFNNYAMGWYRQAPGKERELVAAITWSGGGTYYADSVKGRFTISRDNAKNTVYLQMTSLKAEDTAVYYCAVYYPAYRDEYWGQGTQVTVSS"
  polyreactivity (PSR sort gate): "high polyreactivity"
- biosequence: "QVQLVESGGGLVQAGGSLRLSCAASGRTFFPNAMGWYRPAPAKERELVAAITNGDSTHYADSVKGRFTISRDNAKNTVYLQMNSLKPEDTAVYYCAAEDHYEGYGGYYWGQGTQVTVSS"
  polyreactivity (PSR sort gate): "low polyreactivity"
- biosequence: "QVQLVESGGGLVQAGGSLRLSCAASGRTFKPNTMGWYRQAPGKERELVAAITSSGGSTYYADSVKGRFTISRDNAKNTVYLQMNSLKPEDTAVYYCAARGGAPYRIFKDDYWGQGTQVTVSS"
  polyreactivity (PSR sort gate): "high polyreactivity"
- biosequence: "QVQLVESGGGLVQAGGSLRLSCAASGRTFFDYTMGWYRPAPGKERELVAAITGGDGSTYYADSVKGRFTISRDNAKNTVYLQMNSLKPEDTAVYYCAASVWYNPMDYWGQVTQVTVSS"
  polyreactivity (PSR sort gate): "low polyreactivity"
- biosequence: "QVQLVESGGGLVQAGGSLRLSCAASGSIAGNAMGWYRQARGKEREMVAAITFRGSGTYYADSVKGRFTISRDNAKKTVYLQMNSLKPEDTAVYYCNAYRRGLSGYGYWGQGTQVTVSS"
  polyreactivity (PSR sort gate): "high polyreactivity"
- biosequence: "QVQLVESGGGLVQAGGSLRLSCAASGFTFPSYAMGWYRQAPGKERELGAVISRRGGSTYYADSVKGRFTISRDNAKNTVYLQLNSLKPEDTAVYYCARPRQPGSLYGYWGQGTQVTVSS"
  polyreactivity (PSR sort gate): "high polyreactivity"

---

- assay info: yeast display, Sf9 membrane polyspecificity reagent, FACS + sequencing; frameworks hold sequencing errors

- biosequence: "QVQLVESGGGLVQAGGSLRLSCAASGRYAMGWYRQAPGKVRELVAAISDSDGSTYYADSVKGRFTISRDNAKTNVYLQMNSLKPEDTAVNYCDARSIVRFDSWGQGTQVTVSS"
  polyreactivity (PSR sort gate): "low polyreactivity"
- biosequence: "QVQLEESGGGLVQAGGRLRLSCAASGPIFGYYAMGWYRQAPGKERELVAGIDWSGGNTYYADSVKGRFTISRDNAKYTVYLQMNSLKPEDTAVYYCNTEGGRDTAWYDYWGQGTQVTVSS"
  polyreactivity (PSR sort gate): "low polyreactivity"
- biosequence: "QVQLVESGGGLVQAGGSLRLSCAASGSIFISNAMGWYRQAPGTERELVAAISRSGARTYYADSVKGRFTISRDNAKNTVYLQMNSLKPEDTAVYYCAVVGYSPYKYDYWGQGTQVTVSS"
  polyreactivity (PSR sort gate): "high polyreactivity"
- biosequence: "QVQLVESGGGLVQAGGSLRLSCAASGINFFVYDMGWYRQAPGKERELVAAITWSGDSTYYADSVKGRFTISRDNAKNTVYLQINSLKPVDSAVYYCAAQFDVYYSRQPYDYNRSGYWGQGTQVTVSS"
  polyreactivity (PSR sort gate): "low polyreactivity"
- biosequence: "QVQLVESGGGLVQAGGSLRLSCAASGSILYIYAMGWYRQAPGKERELVAAITSSVGRTYYADSVKGRFTISRDNAKNTVYLQMNSLKPEDTAVYYCAAEYYYSQVAYDYWGQGTQVTVSS"
  polyreactivity (PSR sort gate): "high polyreactivity"

These measurements were taken from the nanobody polyreactivity screen of Harvey et al. (2022).
